src = patent US12168662B1

# Test system: HL60 (leukemia)
# TEST PROTOCOL: In vitro cytotoxic activity assay (MTT)
# Assay type: cell-based
# SETUP CONDITIONS: Homo sapiens, HL-60; HL60 cells, exposed for 96 hours, 50% inhibition of cell proliferation; read-out: Cytotoxicity activity IC50, HL60 (leukemia)
PROPERTY LABEL: IC50 (µM)
The figure you give is taken to be in µM; do not add the unit.

Query string: Could you tell me which IC50 is on file for `Clc1cccc(Nc2nc3[nH]c4cnccc4c3c3ccncc23)c1` ?
Result string: 3.3

###

# Tested on: MDA-MB-231 (breast)
# TEST PROTOCOL: In vitro cytotoxic activity assay (MTT)
# Type: cell-based
# SETUP CONDITIONS: Homo sapiens; MDA-MB-231 cells, exposed for 96 hours, 50% inhibition of cell proliferation; read-out: Cytotoxicity activity IC50, MDA-MB-231 (breast)
PROPERTY LABEL: pIC50
Conceptually, pIC50 converts a concentration in mol/L into minus its log10.

Query string: Could you tell me which pIC50 is on file for Clc1cccc(Nc2nc3[nH]c4cnccc4c3c3ccncc23)c1 [Compound 1] ?
Result string: 5.36

###

# System: A375 (melanoma)
# TEST PROTOCOL: In vitro cytotoxic activity assay (MTT)
# Format: cell-based
# SETUP CONDITIONS: Homo sapiens, A-375; A375 cells, exposed for 96 hours, 50% inhibition of cell proliferation; read-out: Cytotoxicity activity IC50, A375 (melanoma)
PROPERTY LABEL: IC50 (µM)
The figure you give is taken to be in µM; do not add the unit.

Query string: Could you tell me which IC50 is on file for `Clc1cccc(Nc2nc3[nH]c4cnccc4c3c3ccncc23)c1` ?
Result string: 4.7
